B1: glmS ribozyme (parent)
chain: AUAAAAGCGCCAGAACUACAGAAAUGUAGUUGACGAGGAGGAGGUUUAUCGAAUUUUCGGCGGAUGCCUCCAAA

Variants of: B1
Method: self-cleavage kobs at 10000 uM GlcN6P; higher = faster cleavage; RNA array
Test settings: with glucosamine-6-phosphate
Fewer inactive variants are shown than the library holds.
Mark No for self-cleavage kobs at 10000 uM GlcN6P values under 0.0002 s⁻¹, and Yes for everything at or above.

Before answering, review these 5 worked examples.
A15G U25A C50G C70U	No
A6G G43A	No
G13C A15G	No
A36U U49C	No
C10U C50G A53U U54G U55C C68G	No

Can C50U U57A G60U be said to have self-cleavage kobs at 10000 uM GlcN6P at or above 0.0002 s⁻¹? No

Textbook exercise: given the entry U45G U55G , state whether its self-cleavage kobs at 10000 uM GlcN6P is greater than or equal to 0.0002 s⁻¹. Yes

Quick check: does A14U U46C have self-cleavage kobs at 10000 uM GlcN6P greater than or equal to 0.0002 s⁻¹? Yes

Hello, I need to know if A15C U55G has measured self-cleavage kobs at 10000 uM GlcN6P not below 0.0002 s⁻¹. Thanks! Yes

Check if self-cleavage kobs at 10000 uM GlcN6P >= 0.0002 s⁻¹ (inclusive). Item: G13U U47C No

Decide: is the reported value of self-cleavage kobs at 10000 uM GlcN6P for A6G U47G equal to or greater than 0.0002 s⁻¹? No

For this variant, is measured self-cleavage kobs at 10000 uM GlcN6P 0.0002 s⁻¹ or higher? A12C U56C Yes

Entry G35C G51U C58U C61G A64G U65A : is its self-cleavage kobs at 10000 uM GlcN6P no less than 0.0002 s⁻¹? No

State whether the measured self-cleavage kobs at 10000 uM GlcN6P reaches 0.0002 s⁻¹, counting equality as reaching it, for G13C C67U C68G No

Hello, I need to know if C8U C50A G51U A52U has measured self-cleavage kobs at 10000 uM GlcN6P not below 0.0002 s⁻¹. Thanks! No
